B1: TPR 5TU (parent)
chain: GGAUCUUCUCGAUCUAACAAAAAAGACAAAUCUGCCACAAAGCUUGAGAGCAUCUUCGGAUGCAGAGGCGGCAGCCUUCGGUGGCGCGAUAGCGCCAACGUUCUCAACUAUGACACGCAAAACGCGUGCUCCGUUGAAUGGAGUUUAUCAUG

# Variants of: B1
# Procedure Summary: polymerase ribozyme fitness, log enrichment relative to wild type (log ratio); higher = more active; in vitro selection for triplet polymerase activity
This sample holds only a part of the variants without activity.
Quantity Measured: polymerase ribozyme fitness (log ratio)
Note: the reply should be a number with no unit written.

Variant: C27U C118U
polymerase ribozyme fitness (log ratio): -1.44
//
Variant: A60G C96U
polymerase ribozyme fitness (log ratio): 0.674

For reference, reported polymerase ribozyme fitness (log ratio) for G124C G143U stands at -3.2
